All values here come from patent US20230416329A1.

target: bovine trypsin (bovine, UniProt P00760 24-246); experiment: trypsin (50 nM) BApNA hydrolysis, OD405; peptide at 0.098 µM
Sequence (P00760 24-246): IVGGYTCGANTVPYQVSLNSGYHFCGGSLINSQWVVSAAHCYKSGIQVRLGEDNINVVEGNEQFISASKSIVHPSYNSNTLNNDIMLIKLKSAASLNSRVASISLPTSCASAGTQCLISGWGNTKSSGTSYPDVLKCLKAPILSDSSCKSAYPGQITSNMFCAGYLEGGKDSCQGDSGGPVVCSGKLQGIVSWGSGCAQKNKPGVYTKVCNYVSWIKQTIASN
Bridge positions count the residues as written; N and C are the ends. Ends that are not written are not given here.
Reported metric: Residual trypsin activity (%)
The response must be a number in % with no trailing unit.

Consider the binder CGTATKSIPPICF (disulfide 1-12 (inferred), synthetic) [BT25] and give its measured Residual trypsin activity (%).
100

What do you get for CARATKSIPPICF (disulfide 1-12 (inferred), synthetic) [BT67] ?
1.5

What do you get for CGRAAKSIPPICF (disulfide 1-12 (inferred), synthetic) [BT26] ?
100

What do you get for CPRATKSIPPICF (disulfide 1-12 (inferred), synthetic) [BT66] ?
4.8
